Cited source for all entries: patent EP2064211B1

MEASUREMENT_TARGET: HDAC1 enzyme (Homo sapiens, UniProt Q13547)
Construct: Amplification of human HDAC1 coding region from this cDNA library was cloned separately into the baculovirus expression pDEST20 vector
Sequence (Q13547 whole entry): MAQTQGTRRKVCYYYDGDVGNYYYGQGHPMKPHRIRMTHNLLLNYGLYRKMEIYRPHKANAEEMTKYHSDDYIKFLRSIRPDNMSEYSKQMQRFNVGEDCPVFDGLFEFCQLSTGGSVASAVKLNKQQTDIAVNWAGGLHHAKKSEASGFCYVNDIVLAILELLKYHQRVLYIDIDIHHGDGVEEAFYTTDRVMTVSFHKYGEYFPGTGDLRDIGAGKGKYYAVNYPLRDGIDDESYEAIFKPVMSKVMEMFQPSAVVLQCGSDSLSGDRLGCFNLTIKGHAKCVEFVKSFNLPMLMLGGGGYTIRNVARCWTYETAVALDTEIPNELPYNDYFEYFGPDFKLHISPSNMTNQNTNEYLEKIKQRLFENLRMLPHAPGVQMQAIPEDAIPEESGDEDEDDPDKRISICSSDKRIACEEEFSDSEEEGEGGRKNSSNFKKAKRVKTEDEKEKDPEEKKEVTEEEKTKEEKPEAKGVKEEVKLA
PROTOCOL_SUMMARY: In vitro HDAC assay for determination of IC50 values (BIOMOL fluorescent-based HDAC activity assay)
CONDITION_PARAMETERS: recombinant GST-HDAC1, 500 uM Flur de lys substrate, room temperature 2 h; read-out: IC50 (HDAC 1)
REPORTED_ENDPOINT: pIC50
Give bare numbers, as −log10 of the molar value.

// known answers, use as guide
{"MOLECULE": "CCCCc1nc2cc(C=CC(=O)NO)ccn2c1CN(CCC)CCC [Compound 6]", "QUANTITATIVE_RESULT": 6.70}
{"MOLECULE": "CCCCN(CC)Cc1c(CCC(C)C)nc2cc(C=CC(=O)NO)ccn12 [Compound 66]", "QUANTITATIVE_RESULT": 7.40}
{"MOLECULE": "CCCCN(CC)Cc1c(CC(C)C)nc2cc(C=CC(=O)NO)ccn12 [Compound 59]", "QUANTITATIVE_RESULT": 7.40}

Now look at this one.
pIC50 lookup needed for CCCCc1nc2cc(C=CC(=O)NO)ccn2c1CN(CC)CCC(C)CC(C)(C)C (stereo not shown) [Compound 47] , thanks. 6.70
